Target: T1, cynomolgus SIRPα extracellular domain + His-tag (EGM_02252) (cynomolgus monkey)
T1 construct: also called CySIRPα EGM_02252; cynoSIRPα
T1 chain: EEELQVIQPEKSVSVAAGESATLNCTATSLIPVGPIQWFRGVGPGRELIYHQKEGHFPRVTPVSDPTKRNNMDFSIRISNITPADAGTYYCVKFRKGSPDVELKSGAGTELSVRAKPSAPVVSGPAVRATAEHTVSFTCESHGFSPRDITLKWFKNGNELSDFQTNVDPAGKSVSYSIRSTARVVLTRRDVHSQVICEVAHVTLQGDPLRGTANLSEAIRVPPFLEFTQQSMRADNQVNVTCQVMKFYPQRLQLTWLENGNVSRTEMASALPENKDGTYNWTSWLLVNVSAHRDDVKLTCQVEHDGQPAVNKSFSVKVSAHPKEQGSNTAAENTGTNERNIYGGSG
Assay: SPR, Ab captured, ECD-His analyte
quantity: Kd (nM)

INSERT INTO results (binder, quantity, unit_spec, recorded_measurement) VALUES
  ('Antibody A4 (antibody, human IgG1, kappa, L234A L235A, V domains shown) VH: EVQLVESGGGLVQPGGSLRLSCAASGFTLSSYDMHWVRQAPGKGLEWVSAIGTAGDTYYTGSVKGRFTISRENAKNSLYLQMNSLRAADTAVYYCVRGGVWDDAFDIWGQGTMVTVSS VL: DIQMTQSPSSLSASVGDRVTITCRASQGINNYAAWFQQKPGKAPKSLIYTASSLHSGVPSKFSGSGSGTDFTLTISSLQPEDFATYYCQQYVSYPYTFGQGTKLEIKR', 'Kd', 'nM', 508),
  ('Antibody A14 (antibody, human IgG1, kappa, L234A L235A, V domains shown) VH: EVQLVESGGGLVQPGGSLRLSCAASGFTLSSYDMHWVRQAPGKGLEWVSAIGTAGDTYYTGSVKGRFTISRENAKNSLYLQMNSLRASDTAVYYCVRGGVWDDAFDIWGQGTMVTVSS VL: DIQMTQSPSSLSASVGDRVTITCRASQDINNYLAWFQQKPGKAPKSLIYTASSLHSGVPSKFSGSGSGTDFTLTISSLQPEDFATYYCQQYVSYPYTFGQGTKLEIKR', 'Kd', 'nM', 222);

Data provenance: patent US20230012273A1
